# koff listing for each entry below
Target: T1, biotinylated avi-tagged TβRII (UniProt P37173 23-166, a single biotin on the avi tag (BirA))
T1 construct: also called TβRII (SPR surface)
T1 sequence (P37173 23-166): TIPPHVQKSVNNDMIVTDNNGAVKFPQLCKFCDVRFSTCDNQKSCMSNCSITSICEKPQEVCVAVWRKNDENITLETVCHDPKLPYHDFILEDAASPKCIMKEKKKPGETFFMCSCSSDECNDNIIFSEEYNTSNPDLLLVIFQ
Test: SPR; biotinylated avi-tagged TβRII captured (50-150 RU) on a neutravidin-coated CM-5 chip, TGM-D3 and its variants injected; 25 mM Hepes, pH 7.4, 150 mM NaCl, 0.05% surfactant P20, 100 µl/min; 1:1 kinetic fit of duplicate or triplicate injection series
Settings: both partners purified
measurement-name: koff (s⁻¹)

[
  {
    "binder": "TGM-D3 V236A (domain or fragment, also called Val236Ala; not shown: Thioredoxin, N-terminal, cleaved; His6, N-terminal, cleaved) GSGTGCPPLPDDGIVFYEYYGYAGDRHTVGPVVTKDSSGNYPSPTHARRRCRALSQEADPGEFAAICYKSGTTGESHWEYYKNIGKCPDP",
    "experimental-result": 1.8
  },
  {
    "binder": "TGM-D3 (domain or fragment, also called WT TGM-D3; domain 3 of H. polygyrus TGF-β mimic; not shown: Thioredoxin, N-terminal, cleaved; His6, N-terminal, cleaved) GSGTGCPPLPDDGIVFYEYYGYAGDRHTVGPVVTKDSSGNYPSPTHARRRCRALSQEADPGEFVAICYKSGTTGESHWEYYKNIGKCPDP",
    "experimental-result": 0.26
  },
  {
    "binder": "TGM-D3 Y252A (domain or fragment, not shown: Thioredoxin, N-terminal, cleaved; His6, N-terminal, cleaved) GSGTGCPPLPDDGIVFYEYYGYAGDRHTVGPVVTKDSSGNYPSPTHARRRCRALSQEADPGEFVAICYKSGTTGESHWEAYKNIGKCPDP",
    "experimental-result": 1.7
  },
  {
    "binder": "TGM-D3 H199A (domain or fragment, also called His199Ala; not shown: Thioredoxin, N-terminal, cleaved; His6, N-terminal, cleaved) GSGTGCPPLPDDGIVFYEYYGYAGDRATVGPVVTKDSSGNYPSPTHARRRCRALSQEADPGEFVAICYKSGTTGESHWEYYKNIGKCPDP",
    "experimental-result": 0.98
  }
]
